test system: edema in the hind paws (carrageenan); assay: carrageenan-induced hind paw edema, oral administration; assay type: in vivo, male Wistar rats; conditions: Rattus norvegicus, 10 mg/kg orally, 3 hr, read-out: Inhibition (%) 3 hr
property: inhibition in vivo at 10 mg/kg (%)
Numeric only. Scale: %

Below are worked cases with known answers.
CC(C(N)=O)c1ccc2c(c1)CCc1ccccc1O2 (stereo not shown) [Compound 15]
53.3
CC(C(N)=O)c1ccc2c(c1)C(=O)Cc1ccccc1O2 (stereo not shown) [Compound 10]
76.3
CCOC(=O)C(C)c1ccc2c(c1)Sc1ncccc1CC2 (stereo not shown) [Compound 25]
61

Now consider a different compound.
Input: Give reported inhibition in vivo at 10 mg/kg value for CCOC(=O)C(C)c1ccc2c(c1)Sc1ccccc1CC2=O (stereo not shown) [Compound 7]
Output: 31.2

These entries and their values trace back to patent US4205170A.
